Provenance of the data: patent US20230348369A1

Kindly state pEC50 for each of the entries shown.
# study-system: human NAMPT (Homo sapiens)
# protocol-summary: Human recombinant enzyme assay (NMN fluorescence biochemical assay, activation of NAMPT)
# particulars: Table A; human recombinant NAMPT, NMN formation, 60 min; read-out: EC50 Human
# reply with the number alone; pEC50 is -log10 of concentration in mol/L

Report pEC50 for O=C(NCc1ccc(Cl)cc1)N[C@H]1C[C@]2(CCN(c3ncccn3)C2)C1 [Compound 170] please. 4.33

Now the same for COc1ccc(CNC(=O)NC2CC3(C2)CC(C(=O)NC2(c4ccccc4)CC2)C3)cc1 (centres unmarked) [Compound 43] 4.33

Now the same for Cc1ccccc1C(=O)NC1CC2(CC(NC(=O)NCc3ccc(Cl)cc3)C2)C1 (centres unmarked) [Compound 193] 4.84

Now the same for COc1ccc(CNC(=O)NC2CC3(C2)CC(C(=O)N2CCC(c4ccccc4)C2)C3)cc1 (centres unmarked) [Compound 57] 4.59

Now the same for COc1ccc(CNC(=O)NC2CC3(C2)CN(C(=O)C(C)(C)c2ccccc2)C3)cc1 [Compound 142] 4.48

Now the same for COc1ccc(CNC(=O)NC2CC3(C2)CC(C(=O)N2Cc4ccccc4C2)C3)cc1 (centres unmarked) [Compound 73] 5.11

Now the same for COc1ccc(CNC(=O)NC2CC3(C2)CN(C(=O)c2ccnc(C)c2)C3)cc1 [Compound 140] 4.28

Now the same for COc1ccc(CNC(=O)NCCCCCCOc2ccccc2)cc1 [Compound 150] 5.28

Now the same for Cc1cnccc1C(=O)N1CC[C@]2(C1)C[C@@H](NC(=O)NCc1ccc(Cl)cc1)C2 [Compound 166] 4.37

Now the same for COc1ccc(CNC(=O)NC2CC3(C2)CC(C(=O)NCc2cccnc2)C3)cc1 (centres unmarked) [Compound 49] 4.33

Now the same for COc1ccc(CNC(=O)NC2CC3(C2)CC(NC(=O)c2ccccc2)C3)cc1 (centres unmarked) [Compound 18] 4.22

Now the same for COc1ccc(CNC(=O)NC2CC3(C2)CC(C(=O)NCC(C)(C)c2ccccc2F)C3)cc1 (centres unmarked) [Compound 55] 4.39

Now the same for COc1ccc(CNC(=O)NC2CC3(CC(CN4CCCC4c4ccccc4)C3)C2)cc1 (centres unmarked) [Compound 52] 4.36

Now the same for COc1ccc(CNC(=O)NC2CC3(C2)CN(C(=O)c2cccc(S(C)(=O)=O)c2)C3)cc1 [Compound 180] 4.42

Now the same for CN(C(=O)CCCCCNC(=O)NCc1ccc(Cl)cc1)c1cccnc1 [Compound 270] 5.41

Now the same for O=C(NCCCCC1CCN(c2ccccn2)CC1)NCc1ccc(Cl)cc1 [Compound 307] 5.14

Now the same for COc1ccc(CNC(=O)NC2CC3(C2)CN(C(=O)c2ccc(Cl)cc2)C3)cc1 [Compound 158] 4.41

---

# study-system: human NAMPT (Homo sapiens, UniProt P43490)
# Sequence (P43490 whole entry): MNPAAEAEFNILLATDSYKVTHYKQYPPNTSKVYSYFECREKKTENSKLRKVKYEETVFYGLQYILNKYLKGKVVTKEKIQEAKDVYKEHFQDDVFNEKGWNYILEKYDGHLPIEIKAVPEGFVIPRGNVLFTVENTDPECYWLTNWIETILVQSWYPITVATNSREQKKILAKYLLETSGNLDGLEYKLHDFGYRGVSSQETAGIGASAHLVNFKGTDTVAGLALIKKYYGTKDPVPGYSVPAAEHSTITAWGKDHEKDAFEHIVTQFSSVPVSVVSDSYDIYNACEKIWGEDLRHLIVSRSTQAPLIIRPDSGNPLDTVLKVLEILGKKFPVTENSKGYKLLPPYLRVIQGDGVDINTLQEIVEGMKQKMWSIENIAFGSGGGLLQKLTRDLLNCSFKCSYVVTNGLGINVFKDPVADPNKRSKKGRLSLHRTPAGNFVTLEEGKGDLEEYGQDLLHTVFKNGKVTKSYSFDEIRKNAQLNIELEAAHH
# protocol-summary: Human recombinant enzyme assay (NMN fluorescence biochemical assay, activation of NAMPT)
# particulars: Table A; human recombinant NAMPT, NMN formation, 60 min; read-out: EC50 Human
readout-name: log10(EC50) (log10 of the value in µM)
Use the decimal logarithm of EC50 (µM).

Report log10(EC50) for COc1ccc(CNC(=O)NC2CC3(CC(CN4Cc5ccccc5C4)C3)C2)cc1 (stereo not shown) please. 1.48

Now the same for COc1ccc(CNC(=O)NC2CC3(C2)CN(C(=O)C2CCCc4ccccc42)C3)cc1 (stereo not shown) 1.73

Now the same for COc1ccc(CNC(=O)NC2CC3(C2)CN(C(=O)Cc2ccccc2OC)C3)cc1 1.38

Now the same for O=C(NCCCCN1CCN(C(=O)c2ccccc2)CC1)NCc1ccc(Cl)cc1 1.40

Now the same for COc1ccc(CNC(=O)NC2CC3(C2)CC(C(=O)N2CCN(Cc4ccccn4)CC2)C3)cc1 (stereo not shown) 1.71

Now the same for COc1ccc(CNC(=O)NC2CC3(C2)CC(C(=O)N[C@H]2C[C@H](c4ccccc4)C2)C3)cc1 (stereo partly shown) 0.64

Now the same for COc1ccc(CNC(=O)NC2CC3(C2)CN(C(=O)c2ccc(C(F)(F)F)cc2)C3)cc1 1.76

Now the same for O=C(NCCCCC1CCN(C(=O)c2ccno2)CC1)NCc1ccc(Cl)cc1 0.08

Now the same for COc1ccc(CNC(=O)NC2CC3(C2)CN(C(=O)c2ccncc2)C3)cc1 1.65

Now the same for COc1ccc(CNC(=O)NC2CC3(C2)CN(C(=O)Nc2cnc(C)nc2)C3)cc1 1.79

Now the same for CC(C)(C)OC(=O)N1CC[C@]2(C1)C[C@@H](NC(=O)NCc1ccc(Cl)cc1)C2 1.61

Now the same for O=C(NCCCCC1CCN(C(=O)c2ccncc2)CC1)NCc1ccc(Cl)cc1 0.79

Now the same for COc1ccc(CNC(=O)NC2CC3(C2)CC(C(=O)NC2CCCc4ccc(F)cc42)C3)cc1 (stereo in doubt) [Compound 99] 0.59

Now the same for COc1ccc(CNC(=O)NC2CC3(C2)CC(C(=O)N[C@H](CO)c2ccccc2)C3)cc1 (stereo partly shown) 1.62

Now the same for COc1ccc(CNC(=O)NC2CC3(C2)CC(C(=O)N2CCCc4cc(F)ccc42)C3)cc1 (stereo not shown) 0.43

Now the same for NC(=O)c1ccc(CNC(=O)NC2CC3(CC(NCc4ccccn4)C3)C2)cc1 (stereo not shown) 1.58

---

# study-system: human NAMPT (Homo sapiens, UniProt P43490)
# protocol-summary: Human recombinant enzyme assay (NMN fluorescence biochemical assay, activation of NAMPT)
# particulars: Table A; human recombinant NAMPT, NMN formation, 60 min
Rule: AC1.4 Human under 2 µM gives -1, otherwise 1.

Please check the record O=C(NCc1ccc(Cl)cc1)NC1CC2(CC(CNC(=O)c3cn[nH]c3)C2)C1 (centres unmarked) and state if its AC1.4 Human is at or above 2 µM. 1

Now the same for COc1ccc(CNC(=O)NCCCCCNC(=O)OC(C)(C)C)cc1 1

Now the same for O=C(NCc1ccc(Cl)cc1)NC1CC2(CC(Cc3ncccn3)C2)C1 (centres unmarked) 1

Now the same for O=C(NCc1ccc(Cl)cc1)NC1CC2(C1)CN(S(=O)(=O)c1cccc(Cl)c1)C2 1

Now the same for COc1ccc(CNC(=O)NC2CC3(C2)CC(C(=O)N(C)Cc2ccccc2)C3)cc1 (centres unmarked) -1

Now the same for COc1ccc(CNC(=O)NC2CC3(C2)CC(NC(=O)OC(C)(C)C)C3)cc1 (centres unmarked) 1

Now the same for [2H]C([2H])(NC(=O)NCCCCC1CCN(C(=O)c2ccccc2)CC1)c1cnco1 -1

Now the same for Cc1ccc(C(=O)N2CCC(CCCCNC(=O)NCc3ccc(Cl)cc3)CC2)cn1 1

---

# study-system: UniProt:P43490
# protocol-summary: Human recombinant enzyme assay (NMN fluorescence biochemical assay, activation of NAMPT)
# particulars: Table A; human recombinant NAMPT, NMN formation, 60 min; read-out: EC50 Human
// assign fulfilled if EC50 falls strictly below 30 µM, else not fulfilled (ties count as not fulfilled)

Lab log: compare recorded EC50 with 30 µM; is it strictly lower for COc1ccc(C(=O)N2CC[C@]3(C2)C[C@@H](NC(=O)NCc2ccc(Cl)cc2)C3)cc1 [Compound 163] ? fulfilled

Now the same for COc1ccc(CNC(=O)NC2CC3(C2)CC(C(=O)N2CCN(CC(C)(C)O)CC2)C3)cc1 (stereo not shown) [Compound 76] fulfilled

Now the same for COc1ccc(CNC(=O)NC2CC3(C2)CC(C(=O)N(C)[C@H](C)c2ccccc2F)C3)cc1 (stereo partly shown) [Compound 53] fulfilled

Now the same for Cc1cccc(CC(=O)N2CCC(CCCCNC(=O)NCc3ccc(Cl)cc3)CC2)n1 [Compound 299] fulfilled

Now the same for COc1ccc(CNC(=O)NC2CC3(C2)CC(C(=O)NC2CCCc4ccc(F)cc42)C3)cc1 (stereo in doubt) [Compound 97] fulfilled

Now the same for O=C(NCc1ccc(Cl)cc1)NC1CC2(C1)CC(NC(=O)c1ccccc1O)C2 (stereo not shown) [Compound 208] fulfilled

Now the same for Cc1ccccc1NC(=O)CCCCCNC(=O)NCc1ccc(Cl)cc1 [Compound 262] fulfilled

Now the same for O=C(NCc1ccc(Cl)cc1)NC1CC2(CC(CNC(=O)C3CCOCC3)C2)C1 (stereo not shown) [Compound 250] fulfilled

Now the same for CN1CCC(C(=O)N2CCC(CCCCNC(=O)NCc3ccc(Cl)cc3)CC2)CC1=O (stereo not shown) [Compound 302] fulfilled

Now the same for COc1ccc(CNC(=O)NC2CC3(C2)CN(C(=O)c2cccc(C)c2)C3)cc1 [Compound 146] not fulfilled

Now the same for COc1ccc(CNC(=O)NC2CC3(C2)CC(C(=O)NCc2ccnc(OC(F)F)c2)C3)cc1 (stereo not shown) [Compound 88] not fulfilled

Now the same for Cc1cccc(CN(C)C(=O)CCCCCNC(=O)NCc2ccc(Cl)cc2)c1 [Compound 267] fulfilled

Now the same for O=C(NCCCCCNC(=O)c1ccccc1F)NCc1ccc(Cl)cc1 [Compound 280] fulfilled

Now the same for COc1ccc(CNC(=O)NC2CC3(C2)CN(C(=O)c2ccc(C)cc2)C3)cc1 [Compound 145] not fulfilled

Now the same for COc1ccc(CNC(=O)NC2CC3(C2)CC(C(=O)NCC(C)(C)c2ccncc2)C3)cc1 (stereo not shown) [Compound 80] not fulfilled

Now the same for O=C(CCCCCNC(=O)NCc1ccc(Cl)cc1)Nc1ccc(F)cc1 [Compound 284] fulfilled

Now the same for COc1ccc(CNC(=O)NC2CC3(C2)CC(C(=O)N[C@@H]2CCc4ccccc42)C3)cc1 (stereo partly shown) [Compound 91] fulfilled

Now the same for O=C(NCCCCC1CCN(C(=O)Cc2ccccc2)CC1)NCc1ccc(Cl)cc1 [Compound 291] fulfilled

Now the same for CN(Cc1ccccc1)C(=O)CCCCCNC(=O)NCc1ccc(Cl)cc1 [Compound 269] fulfilled

Now the same for CN1CCN(CC2CC3(C2)CC(NC(=O)NCc2ccc(Cl)cc2)C3)C(c2ccccc2)C1 (stereo not shown) [Compound 254] fulfilled

Now the same for Cc1ccc(C(C)(O)C2CC3(CC(NC(=O)NCc4ccc(Cl)cc4)C3)C2)cn1 (stereo not shown) [Compound 338] fulfilled

Now the same for O=C(NCCCCC1CCN(C(=O)c2ccccn2)CC1)NCc1ccc(Cl)cc1 [Compound 292] fulfilled

Now the same for CN(C(=O)CCCCCNC(=O)NCc1ccc(Cl)cc1)c1ccccn1 [Compound 271] fulfilled

Now the same for CC(C)(C)OC(=O)N1CCC2(CC1)CC2CNC(=O)NCc1cn[nH]c1 (stereo not shown) [Compound 31] not fulfilled

Now the same for Cc1ccc(CC2CC3(C2)CC(NC(=O)NCc2ccc(Cl)cc2)C3)cn1 (stereo not shown) [Compound 347] fulfilled

Now the same for COc1ccc(CNC(=O)NC2CC3(C2)CC(C(=O)Nc2ccc4nncn4c2)C3)cc1 (stereo not shown) [Compound 89] not fulfilled

Now the same for COc1ccc(CNC(=O)NC2CC3(C2)CC(C(=O)NCC(C)(C)c2ccccc2OC)C3)cc1 (stereo not shown) [Compound 64] not fulfilled

Now the same for O=C1CC(C(=O)N2CCC(CCCCNC(=O)NCc3ccc(Cl)cc3)CC2)CN1 (stereo not shown) [Compound 303] fulfilled

Now the same for CC1(C)CCC(NC(=O)NCc2ccc(C(N)=O)cc2)CC1 [Compound 3] not fulfilled

Now the same for CN(C(=O)CCCCCNC(=O)NCc1cnco1)c1ccccc1F [Compound 288] fulfilled

Now the same for O=C(NCCCCC1CCN(C(=O)c2ccccc2)CC1)NCc1ccncc1 [Compound 1] fulfilled

Now the same for CN(C(=O)[C@H]1C[C@@]2(C[C@H](NC(=O)NCc3ccc(Cl)cc3)C2)C1)C1CCOC1 (stereo partly shown) [Compound 202] fulfilled
